Origin of values: PubChem BioAssay (EPA / NIEHS)

read-out: Actin alpha 1 (ACTA1), ACTA1 (gene 58); assay: BSK_MyoF_ACTA1: BioMAP Diversity Plus: MyoF Assay for Actin alpha 1 (ACTA1) Biomarker Activity (AID 2284244); details: primary human lung fibroblasts
Calls of active or inactive are those of the source. Rule for the calls: active = hit-call score of the fitted dose curve at least 0.9, where 1 is the maximum; inactive = score below 0.9.
# output must be one of y for active, n for inactive

Query: recorded result category for `Cc1ccccc1OP(=O)(Oc1ccccc1C)Oc1ccccc1C` in this test
y

---

biological target: Cellular tumor antigen p53 (Homo sapiens) (UniProt P04637); test: ATG_p53_CIS: Attagene CIS-FACTORIAL HepG2 Assay for human p53 Transcription Factor (AID 2282994); conditions: HepG2 p53 cis-element reporter, Attagene mRNA; actives raise or lower the signal
Sequence (P04637 whole entry, looked up): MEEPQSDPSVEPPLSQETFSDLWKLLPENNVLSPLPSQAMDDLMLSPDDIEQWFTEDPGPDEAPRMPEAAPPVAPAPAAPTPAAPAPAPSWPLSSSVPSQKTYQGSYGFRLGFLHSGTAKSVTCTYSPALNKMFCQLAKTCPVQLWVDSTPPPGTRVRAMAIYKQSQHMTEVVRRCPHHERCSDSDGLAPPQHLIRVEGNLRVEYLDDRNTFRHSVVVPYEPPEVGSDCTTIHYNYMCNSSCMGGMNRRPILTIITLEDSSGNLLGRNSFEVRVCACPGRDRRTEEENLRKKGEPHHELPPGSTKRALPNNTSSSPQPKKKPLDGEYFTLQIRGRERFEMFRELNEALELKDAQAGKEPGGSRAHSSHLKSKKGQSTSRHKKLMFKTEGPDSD
The source made the active and inactive calls. How the source made its calls: active means hit-call score of the fitted dose curve at least 0.9, where 1 is the maximum; inactive means score below 0.9.
Pick from True = active, False = inactive when you respond.

>>> group_label("CC(=O)C(F)(F)C(F)(F)F")
"False"
>>> group_label("C#CCO")
"False"
>>> group_label("Cc1cc(C(F)(C(F)(F)F)C(F)(F)F)ccc1NC(=O)c1cccc(I)c1C(=O)NC(C)(C)CS(C)(=O)=O")
"False"
>>> group_label("C=C(C)C(=O)OCC(CC)CCCC (stereo not given)")
"False"
>>> group_label("Oc1ccc(Cc2ccc(O)cc2)cc1")
"False"
>>> group_label("c1ccc(-c2cccc(-c3ccccc3)c2)cc1")
"False"
>>> group_label("OCC(c1ccc(Cl)cc1)c1ccc(Cl)cc1")
"False"
>>> group_label("O=S(=O)(c1ccc(Cl)cc1)c1cc(Cl)c(Cl)cc1Cl")
"False"
>>> group_label("O=C(NC(=O)c1c(F)cccc1F)Nc1cc(Cl)c(Oc2ncc(C(F)(F)F)cc2Cl)c(Cl)c1")
"False"
>>> group_label("C[CH2][Hg][S]c1ccccc1C(=O)O")
"False"

Dear colleague, could you share the recorded outcome for `C=CCN=C=S` when you have a moment?
False

Dear colleague, could you share the recorded outcome for OC(Cc1ccccc1Cl)(Cn1cncn1)C1(Cl)CC1 (stereo not given) when you have a moment?
True

Record request — test call for `Cc1cc(Cl)ccc1OCCCC(=O)O`
False

Record request — test call for `CS(=O)(=O)c1ccc(C(=O)C2C(=O)CCCC2=O)c(Cl)c1COCC(F)(F)F`
False

Dear colleague, could you share the recorded outcome for C#CCOC(=O)/C=C(C)/C=C/CC(C)CCCC(C)C (stereo not given) when you have a moment?
False

What was the test verdict on `O=C(NC(=O)c1c(F)cccc1F)Nc1cc(Cl)c(F)c(Cl)c1F` ?
False

---

target: human Opioid Receptor Mu (Opiate Mu), OPRM1 (gene 4988) (UniProt P35372); assay: NVS_GPCR_hOpiate_mu: NovaScreen (NVS) G Protein-Coupled Receptor Assay for human Opioid Receptor Mu (Opiate Mu) (AID 2283290);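 note: hits lower bound tracer signal versus DMSO meaning displacement of the ligand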
Sequence (P35372 whole entry, looked up): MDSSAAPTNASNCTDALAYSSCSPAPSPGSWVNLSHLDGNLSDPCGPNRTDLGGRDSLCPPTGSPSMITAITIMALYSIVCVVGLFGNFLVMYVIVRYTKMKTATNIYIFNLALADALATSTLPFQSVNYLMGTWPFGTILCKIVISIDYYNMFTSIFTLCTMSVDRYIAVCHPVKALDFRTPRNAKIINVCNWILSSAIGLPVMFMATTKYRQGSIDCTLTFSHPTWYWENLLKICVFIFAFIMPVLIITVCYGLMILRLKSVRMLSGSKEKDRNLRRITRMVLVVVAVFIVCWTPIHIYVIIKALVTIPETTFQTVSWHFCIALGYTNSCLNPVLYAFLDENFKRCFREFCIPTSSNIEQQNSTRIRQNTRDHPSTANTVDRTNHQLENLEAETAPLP
Records with an inconclusive call do not appear. Activity calls are given as the source filed them. The calls were made as follows: active = hit-call score of the fitted dose curve at least 0.9, where 1 is the maximum; inconclusive = response in the unintended direction; inactive = score below 0.9.
The categories you may choose from are active, inactive

Here are 3 compounds together with their reported answers.
>>> group_label("O=c1oc2ccccc2c(O)c1C(CC(O)c1ccc(-c2ccc(Br)cc2)cc1)c1ccccc1 (centres undefined)")
"active"
>>> group_label("O=S(=O)(C(Cl)(Cl)Cl)C(Cl)(Cl)Cl")
"active"
>>> group_label("CCCCCCCCCCCCc1cccc(S(=O)(=O)O)c1")
"active"

Now consider the entry below.
# outcome recorded in this test, key = `CCOP(=O)(OCC)SCCSCC`
inactive

---

system: IYD (gene 389434); experiment: CCTE_GLTED_hIYD: CCTE's human Iodotyrosine Deiodinase (xIYD) Inhibition Assay, Great Lakes Toxicology and Ecology Division (GLTED) Lab (AID 2284317);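 note: cell-free human IYD enzyme made in baculovirus insect cells; iodide freed from monoiodotyrosine measured by cerium arsenite color change at 420 nm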
Calls of active or inactive are those of the source. Rule for the calls: active = hit-call score of the fitted dose curve at least 0.9, where 1 is the maximum; inconclusive = response in the unintended direction; inactive = score below 0.9.
A correct response names exactly one class from TRUE for active, FALSE for inactive

>>> group_label("Nc1ccc(N)cc1")
"FALSE"
>>> group_label("O=C(CCl)Nc1ccccc1")
"FALSE"
>>> group_label("CCCCCCCCCCCCc1cccc(S(=O)(=O)O)c1")
"TRUE"

Please state the recorded outcome for this molecule: `Oc1cc(Cl)c(Cl)cc1Cl`
FALSE

---

assay: ATG_Sox_CIS: Attagene CIS-FACTORIAL HepG2 Assay for human SRY-box transcription factor (SOX) (AID 2282960); conditions: HepG2 Attagene cis-factorial SOX reporter, mRNA; actives raise or lower the signal
Active and inactive are the calls of the source. How the source made its calls: active means hit-call score of the fitted dose curve at least 0.9, where 1 is the maximum; inactive means score below 0.9.
Output constraint: value belongs to 1 for active, -1 for inactive

>>> group_label("Fc1cccc(Cl)c1CCl")
1
>>> group_label("Nc1ncn[nH]1")
-1
>>> group_label("FC(F)OCC(F)(F)C(F)(F)F")
-1
>>> group_label("OC(c1ccc(Cl)cc1)(c1ccc(Cl)cc1)c1cccnc1")
-1
>>> group_label("O=C(CCl)NCO")
-1

Tell me the recorded outcome of this test for O=S1OC[C@@H]2[C@H](CO1)[C@]1(Cl)C(Cl)=C(Cl)[C@@]2(Cl)C1(Cl)Cl (stereo partly drawn) .
-1

Lab log entry: `N#Cc1cccnc1` — outcome as called in the assay?
-1

Tell me the recorded outcome of this test for `CC(c1ccc(O)cc1)c1ccc(O)cc1` .
-1

What did the test return for `CCCCCCCCCCBr` ?
-1

What is the recorded call for this compound in the test? `Clc1ccc(C(Cl)(Cl)Cl)cn1`
-1

// return assay outcome for `OCC(c1ccc(Cl)cc1)c1ccc(Cl)cc1`
-1

// param item: `COP(=S)(OC)Oc1cc(Cl)c(I)cc1Cl` ; yields the recorded call
1

Called result for `O=c1[nH]c(=O)n(Cl)c(=O)n1Cl`
-1

---

read-out: Interleukin-8 (IL8), CXCL8 (gene 3576); assay: BSK_LPS_IL8: BioMAP Diversity Plus: LPS Assay for Interleukin-8 (IL8) Biomarker Activity (AID 2283078); conditions: primary human HUVEC with PBMC; actives raise or lower the signal
Active and inactive are the calls of the source. The calls were made as follows: active = hit-call score of the fitted dose curve at least 0.9, where 1 is the maximum; inactive = score below 0.9.
Reported metric: AC50

Observe how each entry below is paired with its result.
>>> result("CCOP(=O)(OCC)SCCSCC")
"inactive"
>>> result("[Cl][Sn]([c]1ccccc1)([c]1ccccc1)[c]1ccccc1")
"0.577 µM (active)"
>>> result("O=C(N[C@H]1CN2CCC1CC2)c1ccc2c(c1)OCCO2")
"inactive"
>>> result("CCCCCCCCCCCCc1cccc(S(=O)(=O)O)c1")
"inactive"
>>> result("CCOC(=O)CC(=O)CCl")
"31.9 µM (active)"

I'd like to know its AC50. The compound in question is `Cc1cccc(OP(=O)(Oc2cccc(C)c2)Oc2cccc(C)c2)c1`
inactive

# input compound: `c1ccc(-c2cccc(-c3ccccc3)c2)cc1` ; wanted: its AC50
29.9 µM (active)

Entry under review: `Cc1cc(Cl)ccc1N` . Reported AC50?
inactive

Dear colleague, I am looking for the recorded AC50 of the following compound: `O=C1C=CC(=O)c2ccccc21`
1.37 µM (active)

---

Read-out: Cytochrome P450 2C19 (Homo sapiens) (UniProt P33261)
Sequence (P33261 whole entry, looked up): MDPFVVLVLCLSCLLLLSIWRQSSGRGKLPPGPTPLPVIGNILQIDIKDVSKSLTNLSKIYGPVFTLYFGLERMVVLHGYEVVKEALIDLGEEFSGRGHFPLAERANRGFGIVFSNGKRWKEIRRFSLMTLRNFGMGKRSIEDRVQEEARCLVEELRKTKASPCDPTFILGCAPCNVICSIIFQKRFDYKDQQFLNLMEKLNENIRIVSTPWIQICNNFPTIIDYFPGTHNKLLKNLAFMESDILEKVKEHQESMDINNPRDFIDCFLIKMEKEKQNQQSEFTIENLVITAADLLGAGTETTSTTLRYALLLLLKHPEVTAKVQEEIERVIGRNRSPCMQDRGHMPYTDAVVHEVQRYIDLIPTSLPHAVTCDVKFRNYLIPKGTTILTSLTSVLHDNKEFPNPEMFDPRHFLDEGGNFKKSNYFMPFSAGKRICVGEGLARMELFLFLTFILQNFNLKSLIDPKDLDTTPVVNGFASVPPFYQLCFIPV
Assay: LTEA_HepaRG_CYP2C19: Life Technologies and Expression Analysis (LTEA) Assay for CYP2C19 using HepaRG (AID 2283482)
Details: mRNA level, 48 h; actives raise or lower the signal
Protocol: LTEA_HepaRG is a cell based, multiplexed-readout assay that uses HepaRG, a human liver cell line, with measurements taken at 48 hours after chemical dosing on a 96-well plate.LTEA_HepaRG_CYP2C19 is one of 102 assay component(s) measured in the LTEA HepaRG cell culture assay. It is a marker of NR mediated metabolism.Data from the assay component LTEA_HepaRG_CYP2C19 was analyzed into 1 endpoint. […]
The source made the active and inactive calls. The calls were made as follows: active = hit-call score of the fitted dose curve at least 0.9, where 1 is the maximum; inactive = score below 0.9.
// classify into active, inactive

>>> group_label("Cc1cc(C)cc(C)c1")
"inactive"

Hi team, can someone confirm the assay call for `Clc1cccc(Cl)c1Cl` ?
inactive

// return assay outcome for `OCCN(CCO)CCO`
inactive

What call does the record list for `Clc1cccc(Cl)c1` ?
inactive

Name the outcome recorded for `CCCCCCCCCCCCc1cccc(S(=O)(=O)O)c1` in the assay.
active

Could you check what this test reported for `N#Cc1cccnc1` ?
inactive

---

biological target: Bile acid receptor (Homo sapiens) (UniProt Q96RI1); test: ATG_FXR_TRANS: Attagene TRANS-FACTORIAL HepG2 Assay for Farnesoid X Receptor (FXR) (AID 2282979); details: HepG2 Attagene TRANS FXR-GAL4 reporter transcription;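 note: hits raise reporter mRNA above DMSO so AC50 marks FXR activation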
Sequence (Q96RI1 whole entry, looked up, the tested form may be a part): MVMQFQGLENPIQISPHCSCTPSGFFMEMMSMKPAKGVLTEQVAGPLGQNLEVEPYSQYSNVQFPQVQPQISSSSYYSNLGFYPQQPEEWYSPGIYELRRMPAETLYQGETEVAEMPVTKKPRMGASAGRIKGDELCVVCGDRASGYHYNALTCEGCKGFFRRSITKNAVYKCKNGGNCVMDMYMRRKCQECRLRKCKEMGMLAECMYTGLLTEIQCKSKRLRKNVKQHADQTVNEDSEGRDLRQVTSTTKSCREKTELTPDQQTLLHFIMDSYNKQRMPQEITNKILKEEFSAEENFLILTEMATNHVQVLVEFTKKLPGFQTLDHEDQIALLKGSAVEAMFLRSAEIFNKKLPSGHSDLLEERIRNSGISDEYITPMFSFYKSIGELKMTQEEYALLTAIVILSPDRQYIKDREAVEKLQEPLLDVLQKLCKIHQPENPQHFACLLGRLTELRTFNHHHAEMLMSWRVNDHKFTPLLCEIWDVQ
Inconclusive results are not listed. The source made the active and inactive calls. The calls were made as follows: active = hit-call score of the fitted dose curve at least 0.9, where 1 is the maximum; inconclusive = response in the unintended direction; inactive = score below 0.9.
In this exercise, the only acceptable responses are T = active, F = inactive

>>> group_label("Cc1ccccc1OP(=O)(Oc1ccccc1)Oc1ccccc1")
"F"

Call for entry `N#Cc1ccccc1N` :
F

I'd appreciate the recorded outcome for `c1ccc(-c2cccc(-c3ccccc3)c2)cc1` from this test.
F

Hi, sorry to bother you, what did the test record for `Clc1cc(C(Cl)(Cl)Cl)cnc1Cl` ?
F

For `CC(c1ccccc1)(c1ccc(O)cc1)c1ccc(O)cc1` , which call appears in the assay record?
T

Any idea what this test logged for `O=C/C(Cl)=C(/Cl)C(=O)O` ?
F

Tell me the recorded outcome of this test for `Cc1cc(C(F)(C(F)(F)F)C(F)(F)F)ccc1NC(=O)c1cccc(I)c1C(=O)NC(C)(C)CS(C)(=O)=O` .
F

Tell me the assay call for `BrCc1ccc(Br)cc1` please.
F

In this assay, the call recorded for `Cc1cc(C(C)(C)c2ccc(O)c(C)c2)ccc1O` was what?
T

What did the test return for `C=CC(=O)[O][Sn]([CH2]CCC)([CH2]CCC)[CH2]CCC` ?
F

Would you mind telling me which call this test gave CCCSP(=S)(OCC)Oc1ccc(SC)cc1 (configuration not stated) ?
F

What is the recorded call for this compound in the test? `CC1(C)[C@H](C(=O)O[C@H](C#N)c2cccc(Oc3ccccc3)c2)[C@@H]1/C=C(\Cl)C(F)(F)F`
F
